Assay: Acute toxicity, rat
Settings: in vivo, male, oral, observed one week, read-out: LD50, oral administration

{"columns": ["Smiles repr", "LD50 at 168 h"],
 "data": [
  ["O=CN(O)CCCP(=O)(O)O", "> 11000 mg/kg"]
]}

* * *

Assay: Acute toxicity, mouse
Set-up: species or system Mouse (ICR-strain)
Settings: in vivo, sc, male, subcutaneous, observed one week, read-out: LD50, subcutaneous administration

{"columns": ["Smiles repr", "LD50 at 168 h, mg/kg"],
 "data": [
  ["O=CN(O)CCCP(=O)(O)O", 8050]
]}

* * *

Test: Acute toxicity, mouse
Design: species or system Mouse (ICR-strain)
Conditions: in vivo, po, male, oral, observed one week, read-out: LD50, oral administration

{"columns": ["Smiles repr", "LD50 at 168 h [mg/kg]"],
 "data": [
  ["O=CN(O)CCCP(=O)(O)O", 11000]
]}

* * *

Assay: Acute toxicity, mouse
Design: species or system Mouse (ICR-strain)
Conditions: in vivo, po, female, oral, observed one week, read-out: LD50, oral administration
Measured quantity: LD50 at 168 h

{"columns": ["Smiles repr", "Result"],
 "data": [
  ["O=CN(O)CCCP(=O)(O)O", "> 11000 mg/kg"]
]}
